system: Influenza A virus; test: Antiviral activity against Influenza A virus (A/Puerto Rico/8/34 (H1N1) infected in MDCK cells assessed as decrease in viral titer preincubated for 1 hr followed by viral infection and cultivated for 48 hrs followed by supernatant transferred to chicken erythrocyte for 1 hr followed by measuring ability to cause positive hemagglutination; format: functional, organism-based; conditions: A/Puerto Rico/8/1934(H1N1)
pIC50: −log10 of the molar value.

{"compound": "NC(=O)c1ncn([C@@H]2O[C@H](CO)[C@@H](O)[C@H]2O)n1", "assay system": "Influenza A virus", "pIC50": 4.46}
{"compound": "COc1cc(OC)c([C@H]2CC(C)(O)[C@@H]3CC[C@@H](C)C[C@H]3O2)c(OC)c1 (stereo partly drawn)", "assay system": "Influenza A virus", "pIC50": 4.72}
{"compound": "C[C@@H]1CC[C@@H]2[C@@H](C1)O[C@@H](c1ccccc1O)CC2(C)F (stereo partly drawn)", "assay system": "Influenza A virus", "pIC50": "< 4.44"}
{"compound": "C[C@@H]1CC[C@@H]2[C@@H](C1)O[C@@H](c1ccc(O)cc1)CC2(C)F (stereo partly drawn)", "assay system": "Influenza A virus", "pIC50": "< 4.44"}
{"compound": "COc1ccc([C@H]2CC(C)(F)[C@@H]3CC[C@@H](C)C[C@H]3O2)cc1OC (stereo partly drawn)", "assay system": "Influenza A virus", "pIC50": "< 5.05"}
{"compound": "C[C@@H]1CC[C@@H]2[C@@H](C1)O[C@@H](c1ccc([N+](=O)[O-])cc1)CC2(C)F (stereo partly drawn)", "assay system": "Influenza A virus", "pIC50": "< 3.01"}
{"compound": "C[C@@H]1CC[C@@H]2[C@@H](C1)O[C@@H](c1ccc(Cl)cc1)CC2(C)O (stereo partly drawn)", "assay system": "Influenza A virus", "pIC50": "< 4.43"}
{"compound": "C[C@@H]1CC[C@@H]2[C@@H](C1)O[C@@H](c1ccc([N+](=O)[O-])cc1)CC2(C)O (stereo partly drawn)", "assay system": "Influenza A virus", "pIC50": 3.41}

---

experiment: Cytotoxicity against MDCK cells assessed as cell death incubated for 48 hrs by MTT assay; format: cell-based, Canis lupus familiaris; details: dog
# note: exactly 500 µM is not below, so it is class 0; use class 1 for CC50 at 48 h strictly under it

{"compound": "COc1ccc([C@H]2CC(C)(F)[C@@H]3CC[C@@H](C)C[C@H]3O2)cc1O (stereo partly drawn)", "class": "class 1"}
{"compound": "C[C@@H]1CC[C@@H]2[C@@H](C1)O[C@@H](c1ccc(Br)cc1)CC2(C)F (stereo partly drawn)", "class": "class 0"}
{"compound": "CC(N)C12CC3CC(CC(C3)C1)C2 (stereo not drawn)", "class": "class 1"}
{"compound": "COc1cc([C@H]2CC(C)(F)[C@@H]3CC[C@@H](C)C[C@H]3O2)cc(OC)c1O (stereo partly drawn)", "class": "class 1"}
{"compound": "COc1ccc([C@H]2CC(C)(O)[C@@H]3CC[C@@H](C)C[C@H]3O2)cc1OC (stereo partly drawn)", "class": "class 0"}
{"compound": "C[C@@H]1CC[C@@H]2[C@@H](C1)O[C@@H](c1ccccc1)CC2(C)F (stereo partly drawn)", "class": "class 1"}
{"compound": "COc1cc([C@H]2CC(C)(O)[C@@H]3CC[C@@H](C)C[C@H]3O2)cc(OC)c1O (stereo partly drawn)", "class": "class 1"}
{"compound": "COc1ccc([C@H]2CC(C)(F)[C@@H]3CC[C@@H](C)C[C@H]3O2)c(OC)c1 (stereo partly drawn)", "class": "class 1"}
{"compound": "COc1ccc([C@H]2CC(C)(O)[C@@H]3CC[C@@H](C)C[C@H]3O2)c(OC)c1 (stereo partly drawn)", "class": "class 0"}
{"compound": "COc1cc(OC)c([C@H]2CC(C)(F)[C@@H]3CC[C@@H](C)C[C@H]3O2)cc1OC (stereo partly drawn)", "class": "class 1"}
{"compound": "NC(=O)c1ncn([C@@H]2O[C@H](CO)[C@@H](O)[C@H]2O)n1", "class": "class 0"}
{"compound": "C[C@@H]1CC[C@@H]2[C@@H](C1)O[C@@H](c1ccc([N+](=O)[O-])cc1)CC2(C)F (stereo partly drawn)", "class": "class 0"}
{"compound": "COc1cc([C@H]2CC(C)(F)[C@@H]3CC[C@@H](C)C[C@H]3O2)ccc1O (stereo partly drawn)", "class": "class 0"}
{"compound": "C[C@@H]1CC[C@@H]2[C@@H](C1)O[C@@H](c1ccccc1O)CC2(C)O (stereo partly drawn)", "class": "class 0"}
{"compound": "COc1cc(OC)c([C@H]2CC(C)(O)[C@@H]3CC[C@@H](C)C[C@H]3O2)c(OC)c1 (stereo partly drawn)", "class": "class 0"}
{"compound": "C[C@@H]1CC[C@@H]2[C@@H](C1)O[C@@H](c1ccccc1)CC2(C)O (stereo partly drawn)", "class": "class 0"}
{"compound": "C[C@@H]1CC[C@@H]2[C@@H](C1)O[C@@H](c1ccc(F)cc1)CC2(C)F (stereo partly drawn)", "class": "class 1"}
{"compound": "COc1cc(OC)c([C@H]2CC(C)(O)[C@@H]3CC[C@@H](C)C[C@H]3O2)cc1OC (stereo partly drawn)", "class": "class 0"}

---

// reported pIC50 per item
test system: Influenza A virus; assay: Antiviral activity against Influenza A virus (A/Puerto Rico/8/34 (H1N1) infected in MDCK cells assessed as decrease in viral titer preincubated for 1 hr followed by viral infection and cultivated for 48 hrs followed by supernatant transferred to chicken erythrocyte for 1 hr followed by measuring ability to cause positive hemagglutination; assay type: functional, organism-based; conditions: A/Puerto Rico/8/1934(H1N1)
pIC50: −log10 of the molar value.

{"molecule": "C[C@@H]1CC[C@@H]2[C@@H](C1)O[C@@H](c1ccc(Br)cc1)CC2(C)O (stereo partly drawn)", "sign": "<", "pIC50": 4.05}
{"molecule": "COc1cc([C@H]2CC(C)(F)[C@@H]3CC[C@@H](C)C[C@H]3O2)cc(OC)c1O (stereo partly drawn)", "sign": "=", "pIC50": 4.23}
{"molecule": "COc1cc([C@H]2CC(C)(O)[C@@H]3CC[C@@H](C)C[C@H]3O2)ccc1O (stereo partly drawn)", "sign": "<", "pIC50": 3.49}
{"molecule": "COc1cc([C@H]2CC(C)(O)[C@@H]3CC[C@@H](C)C[C@H]3O2)cc(OC)c1OC (stereo partly drawn)", "sign": "<", "pIC50": 3.55}
{"molecule": "COc1ccc([C@H]2CC(C)(O)[C@@H]3CC[C@@H](C)C[C@H]3O2)cc1O (stereo partly drawn)", "sign": "=", "pIC50": 3.93}
{"molecule": "COc1ccc([C@H]2CC(C)(O)[C@@H]3CC[C@@H](C)C[C@H]3O2)c(OC)c1 (stereo partly drawn)", "sign": "=", "pIC50": 4.11}
{"molecule": "COc1cccc([C@H]2CC(C)(O)[C@@H]3CC[C@@H](C)C[C@H]3O2)c1OC (stereo partly drawn)", "sign": "<", "pIC50": 3.03}
{"molecule": "COc1cc(OC)c([C@H]2CC(C)(F)[C@@H]3CC[C@@H](C)C[C@H]3O2)c(OC)c1 (stereo partly drawn)", "sign": "=", "pIC50": 4.62}

---

test: Selectivity index, ratio of CC50 for MDCK cells to IC50 for Influenza A virus (A/Puerto Rico/8/34 (H1N1)) infected in MDCK cells; type: toxicity, cell-based; conditions: dog, read-out: Ratio CC50/IC50
# label = 1 if selectivity ratio >= 2 else 0

{"compound": "C[C@@H]1CC[C@@H]2[C@@H](C1)O[C@@H](c1ccc([N+](=O)[O-])cc1)CC2(C)F (stereo partly specified)", "class": 0}
{"compound": "NC(=O)c1ncn([C@@H]2O[C@H](CO)[C@@H](O)[C@H]2O)n1", "class": 1}
{"compound": "COc1cc(OC)c([C@H]2CC(C)(O)[C@@H]3CC[C@@H](C)C[C@H]3O2)cc1OC (stereo partly specified)", "class": 0}
{"compound": "COc1cc(OC)c([C@H]2CC(C)(O)[C@@H]3CC[C@@H](C)C[C@H]3O2)c(OC)c1 (stereo partly specified)", "class": 1}
{"compound": "COc1ccc([C@H]2CC(C)(F)[C@@H]3CC[C@@H](C)C[C@H]3O2)c(OC)c1OC (stereo partly specified)", "class": 1}
{"compound": "C[C@@H]1CC[C@@H]2[C@@H](C1)O[C@@H](c1ccccc1O)CC2(C)F (stereo partly specified)", "class": 0}
{"compound": "COc1ccc([C@H]2CC(C)(O)[C@@H]3CC[C@@H](C)C[C@H]3O2)cc1 (stereo partly specified)", "class": 1}
{"compound": "C[C@@H]1CC[C@@H]2[C@@H](C1)O[C@@H](c1ccc(Br)cc1)CC2(C)O (stereo partly specified)", "class": 0}
{"compound": "COc1cc([C@H]2CC(C)(O)[C@@H]3CC[C@@H](C)C[C@H]3O2)cc(OC)c1OC (stereo partly specified)", "class": 0}
{"compound": "C[C@@H]1CC[C@@H]2[C@@H](C1)O[C@@H](c1ccccc1O)CC2(C)O (stereo partly specified)", "class": 0}
{"compound": "C[C@@H]1CC[C@@H]2[C@@H](C1)O[C@@H](c1ccc(O)cc1)CC2(C)F (stereo partly specified)", "class": 1}
{"compound": "COc1ccc([C@H]2CC(C)(O)[C@@H]3CC[C@@H](C)C[C@H]3O2)cc1OC (stereo partly specified)", "class": 1}
{"compound": "CC(N)C12CC3CC(CC(C3)C1)C2 (stereo unspecified)", "class": 1}
{"compound": "C[C@@H]1CC[C@@H]2[C@@H](C1)O[C@@H](c1ccccc1)CC2(C)O (stereo partly specified)", "class": 1}
{"compound": "COc1cc(OC)c([C@H]2CC(C)(F)[C@@H]3CC[C@@H](C)C[C@H]3O2)cc1OC (stereo partly specified)", "class": 1}
{"compound": "C[C@@H]1CC[C@@H]2[C@@H](C1)O[C@@H](c1ccc(O)cc1)CC2(C)O (stereo partly specified)", "class": 0}
{"compound": "COc1cc([C@H]2CC(C)(F)[C@@H]3CC[C@@H](C)C[C@H]3O2)cc(OC)c1OC (stereo partly specified)", "class": 1}
{"compound": "COc1ccc([C@H]2CC(C)(O)[C@@H]3CC[C@@H](C)C[C@H]3O2)c(OC)c1OC (stereo partly specified)", "class": 0}
{"compound": "COc1ccc([C@H]2CC(C)(F)[C@@H]3CC[C@@H](C)C[C@H]3O2)cc1O (stereo partly specified)", "class": 1}
{"compound": "COc1ccc([C@H]2CC(C)(O)[C@@H]3CC[C@@H](C)C[C@H]3O2)cc1O (stereo partly specified)", "class": 1}
{"compound": "COc1cccc([C@H]2CC(C)(O)[C@@H]3CC[C@@H](C)C[C@H]3O2)c1OC (stereo partly specified)", "class": 0}
{"compound": "COc1cc([C@H]2CC(C)(F)[C@@H]3CC[C@@H](C)C[C@H]3O2)cc(OC)c1O (stereo partly specified)", "class": 1}
{"compound": "COc1cc(OC)c([C@H]2CC(C)(F)[C@@H]3CC[C@@H](C)C[C@H]3O2)c(OC)c1 (stereo partly specified)", "class": 1}
{"compound": "COc1cc([C@H]2CC(C)(O)[C@@H]3CC[C@@H](C)C[C@H]3O2)ccc1O (stereo partly specified)", "class": 0}
